// data source = paper PMC11073699

Target: AaegOR8 (Aedes aegypti, UniProt Q16MN0)
Sequence (Q16MN0 32-422, one chain of several): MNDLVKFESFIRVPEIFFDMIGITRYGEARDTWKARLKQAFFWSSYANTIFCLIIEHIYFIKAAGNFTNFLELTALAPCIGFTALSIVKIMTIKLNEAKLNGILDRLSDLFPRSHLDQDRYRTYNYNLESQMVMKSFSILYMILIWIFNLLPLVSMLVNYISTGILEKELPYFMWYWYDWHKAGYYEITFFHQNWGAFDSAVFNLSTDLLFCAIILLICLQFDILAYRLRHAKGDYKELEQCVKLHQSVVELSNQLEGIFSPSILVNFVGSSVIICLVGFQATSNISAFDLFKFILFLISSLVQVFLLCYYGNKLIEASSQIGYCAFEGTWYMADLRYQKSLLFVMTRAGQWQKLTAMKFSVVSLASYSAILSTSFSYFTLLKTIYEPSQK
Assay: Two-electrode voltage clamp of Xenopus laevis oocytes expressing AaegOR8/Orco (blends, unitary compounds, concentration-response)
Type: cell-based
Details: Alcohols 2 unitary compounds; oocyte 5
Kindly supply the reported Raw data (Responses in nA) Oocyte 5 values for the records listed here.
Answer with the number, then the unit.

Task item: # query: Raw data (Responses in nA) Oocyte 5 of entry C[C@@H]1CC[C@H]2C(C)(C)[C@H]3C[C@@]12CC[C@@]3(C)O [Cedrol]
Reply: 0.0 nA

Task item: What about this molecule? CCCCCCO [1-hexanol]
Reply: 30.0 nA

Task item: And then CC1CCCC2(C)CCCCC12O (stereo not drawn) [Geosmin] , what is it?
Reply: 0.0 nA

Task item: Similarly, CCC/C=C/C=O [trans-2-hexenal] ?
Reply: 0.0 nA

Task item: Please answer likewise for OC1CCCCC1 [cyclohexanol]
Reply: 0.0 nA

Task item: For CCC/C=C/CO [trans-2-hexen-1-ol] then?
Reply: 0.0 nA

Task item: Follow-up entry: COc1ccccc1 [anisole]
Reply: 0.0 nA

Task item: Consider next the molecule C=CC(O)CCCCC (stereo not drawn) [1-octen-3-ol] in the same way.
Reply: 980.0 nA

Task item: Ok, now CC/C=C\CCO [cis-3-hexen-1-ol]
Reply: 5.0 nA

* * *

Give Raw Data (Response in nA) Oocyte 7 for every item shown.
Target: AaegOR71 (Aedes aegypti, UniProt A0A3S7SHD4)
Sequence (A0A3S7SHD4 1-415, one chain of several): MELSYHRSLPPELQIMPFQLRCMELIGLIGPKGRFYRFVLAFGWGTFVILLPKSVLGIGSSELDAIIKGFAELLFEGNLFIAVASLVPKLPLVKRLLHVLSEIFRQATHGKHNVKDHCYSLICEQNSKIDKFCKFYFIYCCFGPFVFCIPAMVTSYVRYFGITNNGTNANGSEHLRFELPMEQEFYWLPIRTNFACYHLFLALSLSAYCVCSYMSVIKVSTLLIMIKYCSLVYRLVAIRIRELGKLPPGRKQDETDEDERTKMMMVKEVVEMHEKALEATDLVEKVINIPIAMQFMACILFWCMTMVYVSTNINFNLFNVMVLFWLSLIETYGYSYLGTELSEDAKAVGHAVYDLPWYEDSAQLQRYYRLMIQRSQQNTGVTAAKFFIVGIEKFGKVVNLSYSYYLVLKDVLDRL
Experiment: Two-electrode voltage clamp of Xenopus laevis oocytes expressing AaegOR71/Orco (blends, unitary compounds, concentration-response)
Assay type: cell-based
Details: Indoles 2 unitary compounds; oocyte 7
Your answer should be a number followed by the unit of measure.

Task item: State the recorded Raw Data (Response in nA) Oocyte 7 for this entry: "c1ccc2ncncc2c1"
Reply: 50 nA

Task item: Again, but for "O=C1Nc2ccccc2C1=O"
Reply: 10 nA

Task item: Another molecule to check: Oc1cccc2[nH]ccc12 [4-Hydroxyindole]
Reply: 30 nA

Task item: And "c1ccc2ncccc2c1" ?
Reply: 210 nA

Task item: Entry "O=C(O)Cc1c[nH]c2ccccc12" please
Reply: 15 nA

Task item: Let us now turn to "O=Cc1ccnc2ccccc12"
Reply: 330 nA

Task item: "O=C1Cc2ccccc2N1" ?
Reply: 5 nA

Task item: Same question, "Nc1cccc2cnccc12" this time
Reply: 0 nA

Task item: And the next one, "c1ccc2nccnc2c1" ?
Reply: 80 nA

Task item: Same question, "OCc1c[nH]c2ccccc12" this time
Reply: 0 nA

Task item: Also "O=C1CCOc2ccccc21" ?
Reply: 30 nA

* * *

Target: AaegOR6 (Aedes aegypti, UniProt A0A1S4G757)
Sequence (A0A1S4G757 1-398): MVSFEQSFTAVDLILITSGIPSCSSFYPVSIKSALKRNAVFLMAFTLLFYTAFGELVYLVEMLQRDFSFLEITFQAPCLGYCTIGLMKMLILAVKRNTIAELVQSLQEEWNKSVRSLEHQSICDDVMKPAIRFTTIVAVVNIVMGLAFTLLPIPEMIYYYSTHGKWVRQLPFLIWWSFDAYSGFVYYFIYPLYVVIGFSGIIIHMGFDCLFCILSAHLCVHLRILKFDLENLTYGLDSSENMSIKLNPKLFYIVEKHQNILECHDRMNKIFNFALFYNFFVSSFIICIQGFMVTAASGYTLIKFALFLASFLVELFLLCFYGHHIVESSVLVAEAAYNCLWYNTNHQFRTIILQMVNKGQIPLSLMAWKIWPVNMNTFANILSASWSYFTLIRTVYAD
Sequence (Q178U6 whole entry partner): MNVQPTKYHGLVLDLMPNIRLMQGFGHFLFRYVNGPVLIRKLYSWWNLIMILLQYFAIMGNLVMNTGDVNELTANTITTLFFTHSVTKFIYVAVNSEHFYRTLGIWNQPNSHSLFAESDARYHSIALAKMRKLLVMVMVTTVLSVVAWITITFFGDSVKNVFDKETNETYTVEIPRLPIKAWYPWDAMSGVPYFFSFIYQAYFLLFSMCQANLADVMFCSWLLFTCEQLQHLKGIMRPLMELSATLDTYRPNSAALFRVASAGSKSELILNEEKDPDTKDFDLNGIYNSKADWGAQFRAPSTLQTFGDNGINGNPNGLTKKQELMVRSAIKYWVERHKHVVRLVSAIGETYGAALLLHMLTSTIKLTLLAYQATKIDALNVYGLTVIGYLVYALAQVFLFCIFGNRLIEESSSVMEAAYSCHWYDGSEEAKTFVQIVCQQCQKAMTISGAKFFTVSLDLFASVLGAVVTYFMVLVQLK
Assay: Two-electrode voltage clamp of Xenopus laevis oocytes expressing AaegOR6/Orco (blends, unitary compounds, concentration-response)
Type: cell-based
Conditions: Indoles 2 unitary compounds; oocyte 5
assay readout: Raw data (Responses in nA) Oocyte 5

Task item: Reported Raw data (Responses in nA) Oocyte 5 for "Nc1cccc2cnccc12" : what is it?
Reply: 0.0 nA

Task item: Similarly, "O=Cc1ccnc2ccccc12" ?
Reply: 0.0 nA

Task item: Continue with "O=C(O)Cc1c[nH]c2ccccc12"
Reply: 10.0 nA

Task item: Subsequent entry: "O=C1CCOc2ccccc21"
Reply: 70.0 nA

* * *

Biological target: AaegOR8 (Aedes aegypti, UniProt Q16MN0)
Assay: Two-electrode voltage clamp of Xenopus laevis oocytes expressing AaegOR8/Orco (blends, unitary compounds, concentration-response)
Type: cell-based
Conditions: Alcohols 2 unitary compounds; oocyte 4
assay readout: Raw data (Responses in nA) Oocyte 4
Give a bare numeral; the unit nA is implied.

Task item: Would you mind telling me what Raw data (Responses in nA) Oocyte 4 value was observed for "COc1ccccc1" ?
Reply: 0.0

Task item: Likewise for CC1CCCC2(C)CCCCC12O (stereo not drawn) ?
Reply: 0.0

Task item: And then "OC1CCCCC1" , what is it?
Reply: 0.0

Task item: Now consider CCC/C=C/C=O [trans-2-hexenal] and answer again.
Reply: 0.0

Task item: What do we get for CCC/C=C/CO [trans-2-hexen-1-ol] ?
Reply: 0.0

Task item: Would you kindly repeat that for CC/C=C\CCO [cis-3-hexen-1-ol] ?
Reply: 0.0

Task item: Queued: "CCCCCCO"
Reply: 15.0

Task item: Please do the same for "C[C@@H]1CC[C@H]2C(C)(C)[C@H]3C[C@@]12CC[C@@]3(C)O" as well.
Reply: 0.0

Task item: Field entry: C=CC(O)CCCCC (stereo not drawn)
Reply: 780.0
